Test: Pharmacokinetic assessment - abuse quotient (plasma Cmax, Tmax, AUC0-last, AQ)
Conditions: both, human, plasma, oral, 30 mg
Measurement Kind: Tmax (h)
Express the result in h but write the number alone.

Task: What measured Tmax goes with COc1ccc2c3c1O[C@H]1C(=O)CC[C@@]4(O)[C@@H](C2)N(C)CC[C@]314.Cl [IR Oxycodone, oxycodone hydrochloride] ?
Output: 1.2

----------
Test: Pharmacokinetic assessment - abuse quotient (plasma Cmax, Tmax, AUC0-last, AQ)
Conditions: both, human, plasma, oral, 60 mg
Measurement Kind: AUC(0-t) (ng·h/mL)
Express the result in ng·h/mL but write the number alone.

Task: What measured AUC(0-t) goes with COc1ccc2c3c1O[C@H]1C(=O)CC[C@@]4(O)[C@@H](C2)N(C)CC[C@]314.Cl [IR Oxycodone, oxycodone hydrochloride] ?
Output: 435

Data credit: patent US20210251983A1
